# GHS category listing for each entry below
# protocol: GHS categories as the set defines them, by LD50: 1 up to 5, 2 up to 50, 3 up to 300, 4 up to 2000, 5 above 2000 mg/kg
# condition: rat; in vivo; po
// return just the number, without any unit appended

Guide cases for GHS category, answers given:
molecule	GHS category
CCCCCC(=O)CC	5
CCOC(=O)C1(OC(=O)Cc2ccc(Cl)cc2Cl)CCCCC1	5
CCCCCCOC(=O)CCCCC(=O)OCCCCCC	5
O=C(c1ccccc1)c1ccc2[nH]c(=O)oc2c1	5
OCC1C(CO)C2(Cl)C(Cl)=C(Cl)C1(Cl)C2(Cl)Cl (stereo not given)	5
O=c1[nH]n(-c2cccc(C(F)(F)F)c2)c2ncccc12	4

Query: Give a short answer stating reported GHS category for O=[N+]([O-])c1ccc2c(c1)COP(=S)(N1CCOCC1)O2 (stereo not given) .
Reply: 3

Query: Give a short answer stating reported GHS category for COC(=O)CCCC(=O)OC .
Reply: 5

Query: Give a short answer stating reported GHS category for C=Cc1ccc(O)c(C=C)c1 .
Reply: 5

Query: Give a short answer stating reported GHS category for C=C(C)C(=O)NC(C)C .
Reply: 5

Query: Give a short answer stating reported GHS category for C[C@H]1CO[C@@](Cn2ccnc2)(c2cc3cc(Cl)cc(Cl)c3o2)O1 .
Reply: 4

Query: Give a short answer stating reported GHS category for CNC(=O)c1sc(-c2ccc(OC)c(OC)c2)nc1C .
Reply: 5

Query: Give a short answer stating reported GHS category for CCN(C(=O)SCc1ccccc1)C(C)C(C)C (stereo not given) .
Reply: 5

Query: Give a short answer stating reported GHS category for Cc1ccc(OP(=O)(Oc2ccccc2)Oc2ccccc2)cc1 .
Reply: 5

Query: Give a short answer stating reported GHS category for CC1(C(=O)Nc2ccc(O)c(Cl)c2Cl)CCCCC1 .
Reply: 5

Query: Give a short answer stating reported GHS category for C=COC(=O)C1=C(C)N[C@@](C)(c2ccc(N3CCN(C(c4ccccc4)c4ccccc4)CC3)cc2)C(C(=O)OC)C1c1cccc([N+](=O)[O-])c1 (stereo not given in full) .
Reply: 4

Query: Give a short answer stating reported GHS category for CO[Si](OC)(C1CCCC1)C1CCCC1 .
Reply: 5

Query: Give a short answer stating reported GHS category for CC(=O)CSc1nnnn1C .
Reply: 4

Query: Give a short answer stating reported GHS category for CC(=O)C(N=Nc1cccc(OCCOc2ccccc2N=NC(C(C)=O)C(=O)Nc2ccc3[nH]c(=O)[nH]c3c2)c1)C(=O)Nc1ccc2[nH]c(=O)[nH]c2c1 (stereo not given) .
Reply: 5

Query: Give a short answer stating reported GHS category for C=C1[C@H]2CC[C@@H]3[C@H]2C(C)(C)CCC[C@]13C .
Reply: 5

* * *

# protocol: GHS categories as the set defines them, by LD50: 1 up to 5, 2 up to 50, 3 up to 300, 4 up to 2000, 5 above 2000 mg/kg
# condition: rat; in vivo; po
measurement_kind: GHS category
// return just the number, without any unit appended

Guide cases for GHS category, answers given:
compound	GHS category
COC(=O)c1ccc(C(=O)Nc2cc(Cl)ccc2Cl)cc1N	4
COc1c(C)c(O)c(C)c(C)c1C(=O)Oc1c(C)c(C)c(C(=O)Oc2c(C)c(C)c(C(=O)O)c(OC)c2C)c(O)c1C	4
C[C@]12C[C@H]3O[C@H]3CC1CCC1C2CC[C@]2(C)C(=O)[C@@H](N3CCCC3)CC12 (stereo partly specified)	5
Cc1ccc2c(-c3ccc(F)cc3)nc(=O)n(C(C)C)c2c1	5
CC(C)COP(O)(=S)OCC(C)C	5

Query: Give a short answer stating reported GHS category for Cc1cccc(C)c1N=C(O)c1cccnc1O .
Reply: 5

Query: Give a short answer stating reported GHS category for C[C@H]1CO[C@@](Cn2cncn2)(c2cc3ccccc3o2)O1 .
Reply: 4
